# system_under_test: Phosphatidylinositol 4,5-bisphosphate 3-kinase catalytic subunit alpha isoform (Homo sapiens)
# Sequence (P42336 whole entry, canonical isoform): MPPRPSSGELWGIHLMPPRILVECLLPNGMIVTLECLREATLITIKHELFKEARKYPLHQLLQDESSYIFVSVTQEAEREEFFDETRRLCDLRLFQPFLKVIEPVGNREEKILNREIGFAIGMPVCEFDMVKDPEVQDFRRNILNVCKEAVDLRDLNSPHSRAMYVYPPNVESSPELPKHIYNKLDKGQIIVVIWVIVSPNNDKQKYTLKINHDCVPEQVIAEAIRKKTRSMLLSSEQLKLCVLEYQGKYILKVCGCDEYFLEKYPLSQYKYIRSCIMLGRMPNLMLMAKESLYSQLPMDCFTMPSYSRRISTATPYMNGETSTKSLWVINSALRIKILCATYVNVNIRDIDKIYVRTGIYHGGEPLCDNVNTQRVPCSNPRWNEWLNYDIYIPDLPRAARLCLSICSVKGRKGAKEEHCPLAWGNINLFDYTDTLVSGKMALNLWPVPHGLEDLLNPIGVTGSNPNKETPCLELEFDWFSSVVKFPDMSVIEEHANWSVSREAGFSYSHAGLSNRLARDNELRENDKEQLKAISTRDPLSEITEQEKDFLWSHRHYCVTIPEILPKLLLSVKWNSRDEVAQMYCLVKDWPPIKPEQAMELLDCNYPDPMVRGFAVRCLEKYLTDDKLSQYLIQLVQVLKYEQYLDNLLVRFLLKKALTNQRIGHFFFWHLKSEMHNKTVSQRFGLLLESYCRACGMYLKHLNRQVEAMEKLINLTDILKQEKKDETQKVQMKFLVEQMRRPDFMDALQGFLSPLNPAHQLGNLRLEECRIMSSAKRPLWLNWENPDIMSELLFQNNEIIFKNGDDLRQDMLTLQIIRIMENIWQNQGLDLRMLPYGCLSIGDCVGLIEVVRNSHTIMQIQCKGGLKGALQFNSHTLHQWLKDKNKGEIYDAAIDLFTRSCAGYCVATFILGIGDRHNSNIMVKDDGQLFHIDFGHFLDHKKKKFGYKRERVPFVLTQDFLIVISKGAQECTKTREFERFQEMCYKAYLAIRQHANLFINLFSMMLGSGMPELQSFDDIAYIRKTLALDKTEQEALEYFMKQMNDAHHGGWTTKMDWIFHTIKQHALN
# experiment_description: Inhibition of p110alpha (unknown origin) assessed as decrease in ATP consumption after 60 mins by Kinase-Glo assay
measured_quantity: IC50 (µM)
Write the number in µM without appending the unit.

Incoming: Identify IC50 associated with the molecule `O=c1nc(N2CCOCC2)oc2c(-c3ccccc3)c3ccccc3cc12`
Outgoing: 43.8

---

# system_under_test: Phosphatidylinositol 4,5-bisphosphate 3-kinase catalytic subunit gamma isoform (Homo sapiens)
# Sequence (P48736 whole entry, looked up, canonical isoform): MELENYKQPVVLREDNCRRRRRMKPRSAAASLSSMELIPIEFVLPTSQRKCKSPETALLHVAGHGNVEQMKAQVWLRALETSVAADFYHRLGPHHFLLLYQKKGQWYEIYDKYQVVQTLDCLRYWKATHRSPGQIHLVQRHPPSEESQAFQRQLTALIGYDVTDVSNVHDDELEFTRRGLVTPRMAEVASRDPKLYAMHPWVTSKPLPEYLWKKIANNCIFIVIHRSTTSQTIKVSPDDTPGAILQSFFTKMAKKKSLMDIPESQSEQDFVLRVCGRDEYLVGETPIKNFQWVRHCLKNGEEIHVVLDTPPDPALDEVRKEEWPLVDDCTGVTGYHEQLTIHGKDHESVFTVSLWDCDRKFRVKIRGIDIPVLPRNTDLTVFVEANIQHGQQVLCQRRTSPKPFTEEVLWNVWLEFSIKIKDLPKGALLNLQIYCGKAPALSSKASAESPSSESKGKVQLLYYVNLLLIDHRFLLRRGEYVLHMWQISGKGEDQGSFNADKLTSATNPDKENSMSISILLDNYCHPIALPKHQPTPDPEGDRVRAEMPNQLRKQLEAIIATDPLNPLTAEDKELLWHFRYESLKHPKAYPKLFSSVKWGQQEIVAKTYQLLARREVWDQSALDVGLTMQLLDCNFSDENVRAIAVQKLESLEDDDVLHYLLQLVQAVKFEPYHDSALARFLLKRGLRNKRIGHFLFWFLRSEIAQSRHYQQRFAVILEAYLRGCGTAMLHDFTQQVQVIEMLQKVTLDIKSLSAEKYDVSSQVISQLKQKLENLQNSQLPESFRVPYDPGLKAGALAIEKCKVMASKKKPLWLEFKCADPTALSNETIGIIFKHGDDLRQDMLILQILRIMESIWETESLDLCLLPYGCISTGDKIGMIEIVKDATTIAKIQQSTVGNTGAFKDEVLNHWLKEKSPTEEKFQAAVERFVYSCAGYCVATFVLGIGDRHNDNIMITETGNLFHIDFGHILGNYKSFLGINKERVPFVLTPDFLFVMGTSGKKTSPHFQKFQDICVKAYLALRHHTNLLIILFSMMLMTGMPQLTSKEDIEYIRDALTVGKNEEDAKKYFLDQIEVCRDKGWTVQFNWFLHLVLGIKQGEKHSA
# experiment_description: Inhibition of p110gamma (unknown origin) assessed as decrease in ATP consumption at 10 uM after 60 mins by Kinase-Glo assay relative to control
Lab note: compare inhibition against 10%. Equal or greater, write T. Smaller, write F.

>  <mol>
O=c1nc(N2CCOCC2)oc2c1cc(-c1cccc3c1oc1ccccc13)c1ccccc12

>  <cat>
T

$$$$
>  <mol>
O=c1nc(N2CCOCC2)oc2c1cc(-c1cccc3c1sc1ccccc13)c1ccccc12

>  <cat>
T

$$$$
>  <mol>
COc1ccc(-c2cc3c(=O)nc(N4CCOCC4)oc3c3ccccc23)cc1

>  <cat>
T

$$$$
>  <mol>
O=c1nc(N2CCOCC2)oc2ccc3cc(-c4ccccc4)ccc3c12

>  <cat>
F

$$$$
>  <mol>
COc1ccc(-c2ccc3c(ccc4oc(N5CCOCC5)nc(=O)c43)c2)cc1

>  <cat>
F

$$$$
>  <mol>
O=c1nc(N2CCOCC2)oc2ccc3ccccc3c12

>  <cat>
F

$$$$
>  <mol>
O=c1nc(N2CCOCC2)oc2c(-c3ccc(Cl)cc3)c3ccccc3cc12

>  <cat>
F

$$$$
>  <mol>
O=c1nc(N2CCOCC2)oc2ccc3cc(-c4ccc(Cl)cc4)ccc3c12

>  <cat>
F

$$$$
>  <mol>
O=c1nc(N2CCOCC2)oc2c1cc(-c1ccccc1)c1ccccc12

>  <cat>
T

$$$$

Here's the next entry for you.
Incoming: inhibition >= 10% for `O=c1nc(N2CCOCC2)oc2c1ccc1ccccc12` ?
Outgoing: F
